Taken from patent US20040253247A1.

EC50 by entry:
# Tested On: T1, IgG-Fc (UniProt P01857-1 108-330 = IgG part, limits assumed)
# T1 construct: domain: IgG-Fc; also called biotinylated-IgG-Fc; biotin-IgG-Fc
# Protocol Notes: phage ELISA, M13/gIII display, ALA scan
Measured Attribute: EC50 (nM)

> print(dat)
                                      binder  measured.attribute  recorded.result
 1  WEADCAWHAGELVWCTKVEE (M13/gIII phage display; ALA Scan on Phage) [phage clone WEADCAWHAGELVWCTKVEE]                EC50               56
 2  WEADCAWHLGELVWCTKAEE (M13/gIII phage display; ALA Scan on Phage) [phage clone WEADCAWHLGELVWCTKAEE]                EC50                8
 3  WEADCAWHLGEAVWCTKVEE (M13/gIII phage display; ALA Scan on Phage) [phage clone WEADCAWHLGEAVWCTKVEE]                EC50             1890
 4  WEADCAWHLGELVACTKVEE (M13/gIII phage display; ALA Scan on Phage) [phage clone WEADCAWHLGELVACTKVEE]                EC50             3380
 5  WEADCAWHLGELVWCAKVEE (M13/gIII phage display; ALA Scan on Phage) [phage clone WEADCAWHLGELVWCAKVEE]                EC50              101
 6  WEADCAWHLGELVWCTKVAE (M13/gIII phage display; ALA Scan on Phage) [phage clone WEADCAWHLGELVWCTKVAE]                EC50                4
 7  WAADCAWHLGELVWCTKVEE (M13/gIII phage display; ALA Scan on Phage) [phage clone WAADCAWHLGELVWCTKVEE]                EC50               34
 8  WEADCAWHLGELVWCTAVEE (M13/gIII phage display; ALA Scan on Phage) [phage clone WEADCAWHLGELVWCTAVEE]                EC50               10
 9  WEAACSWHLGELVWCTKVEE (M13/gIII phage display; ALA Scan on Phage) [phage clone WEAACSWHLGELVWCTKVEE]                EC50               10
10  WEADCAAHLGELVWCTKVEE (M13/gIII phage display; ALA Scan on Phage) [phage clone WEADCAAHLGELVWCTKVEE]                EC50              798
